- Read-out: Thrombomodulin, THBD (gene 7056)
- assay method text: BSK_3C_Thrombomodulin: BioMAP Diversity Plus: 3C Assay for Thrombomodulin Biomarker Activity (AID 2283029)
- condition: primary human endothelial cells (HUVEC); actives raise or lower the signal
Calls of active or inactive are those of the source. How the source made its calls: active means hit-call score of the fitted dose curve at least 0.9, where 1 is the maximum; inactive means score below 0.9.
Your reply should match one of these outcome classes. active, inactive

Ask: Could you kindly confirm the outcome this assay logged for `CCCCCCOC(=O)CCCCC(=O)OCCCCCC` ?
Reply: inactive

Ask: Could you kindly confirm the outcome this assay logged for `C[N+](C)(C)CCCNS(=O)(=O)C(F)(F)C(F)(F)C(F)(F)C(F)(F)C(F)(F)C(F)(F)C(F)(F)C(F)(F)F` ?
Reply: inactive

Ask: Could you kindly confirm the outcome this assay logged for CCCCCCCCC(CO)CCCCCC (stereo not drawn) ?
Reply: inactive

Ask: Could you kindly confirm the outcome this assay logged for CCc1cccc(C)c1N(C(=O)CS(=O)(=O)O)C(C)COC (stereo not drawn) ?
Reply: inactive

Ask: Could you kindly confirm the outcome this assay logged for `CC(C)CCCCCOC(=O)CS` ?
Reply: inactive

Ask: Could you kindly confirm the outcome this assay logged for `CCNc1nc(NC(C)(C)C)nc(OC)n1` ?
Reply: inactive

Ask: Could you kindly confirm the outcome this assay logged for `CCOC(=O)C1=NOC(c2ccccc2)(c2ccccc2)C1` ?
Reply: inactive

Ask: Could you kindly confirm the outcome this assay logged for `CC(C)C(=O)OCCc1ccccc1` ?
Reply: inactive

Ask: Could you kindly confirm the outcome this assay logged for `CCCCCCCCCCCC(C)=O` ?
Reply: inactive

Ask: Could you kindly confirm the outcome this assay logged for `C1CNCCN1` ?
Reply: inactive

Ask: Could you kindly confirm the outcome this assay logged for `C=CC(=O)OCCCCCCCC(C)C` ?
Reply: active

Ask: Could you kindly confirm the outcome this assay logged for `Cc1ccc([N+](=O)[O-])cc1N` ?
Reply: inactive

Ask: Could you kindly confirm the outcome this assay logged for `CCN1CN(CC)CN(CC)C1` ?
Reply: inactive

Ask: Could you kindly confirm the outcome this assay logged for CCCC(C)C(=O)OCC (stereo not drawn) ?
Reply: inactive

Ask: Could you kindly confirm the outcome this assay logged for `O=C1CCCCCCCCCCCN1` ?
Reply: inactive

Ask: Could you kindly confirm the outcome this assay logged for `CC(c1cc(C(C)(C)C)cc(C(C)(C)C)c1O)c1cc(C(C)(C)C)cc(C(C)(C)C)c1O` ?
Reply: inactive

Ask: Could you kindly confirm the outcome this assay logged for `Oc1c(Cl)cc(Cl)c(Cl)c1Cl` ?
Reply: inactive

Ask: Could you kindly confirm the outcome this assay logged for `C=CCCCCCCCCC=O` ?
Reply: inactive

---

- Read-out: Interleukin-8 (IL8), CXCL8 (gene 3576)
- assay method text: BSK_CASM3C_IL8: BioMAP Diversity Plus: CASM3C Assay for Interleukin-8 (IL8) Biomarker Activity (AID 2283042);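 further: IL-8 protein level quantified by ELISA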
- condition: primary human coronary artery smooth muscle cells; actives raise or lower the signal
Activity calls are given as the source filed them. How the source made its calls: active means hit-call score of the fitted dose curve at least 0.9, where 1 is the maximum; inactive means score below 0.9.
Your reply should match one of these outcome classes. active, inactive

# count of solved cases: 5
[
  {
    "compound": "CCCCCCCO",
    "cat": "inactive"
  },
  {
    "compound": "c1ccc2sc(SSN3CCOCC3)nc2c1",
    "cat": "active"
  },
  {
    "compound": "C=CC(=O)OCCCCCCCC(C)C",
    "cat": "inactive"
  },
  {
    "compound": "C=CC(=O)OCC(C)OCC(C)OCC(C)OC(=O)C=C (stereo not drawn)",
    "cat": "inactive"
  },
  {
    "compound": "O=C(Cl)c1c(Cl)c(Cl)c(C(=O)Cl)c(Cl)c1Cl",
    "cat": "inactive"
  }
]

Ask: Could you kindly confirm the outcome this assay logged for `CC1=CC=C(C(C)C)CC1` ?
Reply: inactive

Ask: Could you kindly confirm the outcome this assay logged for `Nc1ccc(C(=O)O)cc1` ?
Reply: inactive

Ask: Could you kindly confirm the outcome this assay logged for `Nc1nc(N)nc(-c2ccccc2)n1` ?
Reply: inactive

---

- measured on: CCAAT/enhancer-binding protein beta (Homo sapiens)
- assay method text: ATG_C_EBP_CIS: Attagene CIS-FACTORIAL HepG2 Assay for human CCAAT/Enhancer Binding Protein (C/EBP) beta (AID 2282927)
- condition: HepG2 Attagene cis-factorial transcription factor reporter; actives raise or lower the signal
Active and inactive are the calls of the source. Rule for the calls: active = hit-call score of the fitted dose curve at least 0.9, where 1 is the maximum; inactive = score below 0.9. Peptide text beside a SMILES is read from it.
Your reply should match one of these outcome classes. 1 for active, -1 for inactive

# count of solved cases: 4
[
  {
    "molecule": "CCCCCC(=O)OCC",
    "measured on": "CCAAT/enhancer-binding protein beta (Homo sapiens)",
    "cat": -1
  },
  {
    "molecule": "C=CC(=O)OCCCCCCCC(C)C",
    "measured on": "CCAAT/enhancer-binding protein beta (Homo sapiens)",
    "cat": 1
  },
  {
    "molecule": "[Cl][Eu]([Cl])[Cl]",
    "measured on": "CCAAT/enhancer-binding protein beta (Homo sapiens)",
    "cat": -1
  },
  {
    "molecule": "COC(=O)[C@H](Cc1ccccc1)NC(=O)[C@@H](N)CC(=O)O (H-Asp-Phe-OMe)",
    "measured on": "CCAAT/enhancer-binding protein beta (Homo sapiens)",
    "cat": -1
  }
]

Ask: Could you kindly confirm the outcome this assay logged for `CCCCCCCC(=O)OCC(COC(=O)CCCCCCC)OC(=O)CCCCCCC` ?
Reply: -1

Ask: Could you kindly confirm the outcome this assay logged for `CC(C)c1cc(C(C)C)cc(C(C)C)c1` ?
Reply: 1

---

- measured on: Estrogen receptor (Homo sapiens)
- assay method text: OT_ERa_GFPERaERE_0120: Odyssey Thera (OT) 2-hour HeLa Transcription Induction Assay for Estrogen Receptor (AID 2283382)
- Description: OT_ERa_GFPERaERE_0120 is a cell-based, single-readout assay that uses HeLa, a human cervix cell line, with measurements taken at 2 hours after chemical dosing in a 384-well plate.OT_ERa_GFPERaERE_0120 is one of one assay component(s) measured or calculated from the OT_ERa_GFPERaERE_0120 assay. […] This assay endpoint, OT_ERa_EREGFP_0120, was analyzed in the positive analysis fitting direction relative to DMSO as the negative control and baseline of activity. […]
Active and inactive are the calls of the source. Rule for the calls: active = hit-call score of the fitted dose curve at least 0.9, where 1 is the maximum; inconclusive = response in the unintended direction; inactive = score below 0.9.
Your reply should match one of these outcome classes. active, inactive

# count of solved cases: 8
[
  {
    "compound": "C=C[Si](OCCOC)(OCCOC)OCCOC",
    "measured on": "Estrogen receptor (Homo sapiens)",
    "cat": "inactive"
  },
  {
    "compound": "N#Cc1ccc(C2CCCc3cncn32)cc1 (stereo unspecified)",
    "measured on": "Estrogen receptor (Homo sapiens)",
    "cat": "active"
  },
  {
    "compound": "CCCCCCCCCC(C)=O",
    "measured on": "Estrogen receptor (Homo sapiens)",
    "cat": "inactive"
  },
  {
    "compound": "O=c1c(O)c(-c2ccc(O)cc2O)oc2cc(O)cc(O)c12",
    "measured on": "Estrogen receptor (Homo sapiens)",
    "cat": "inactive"
  },
  {
    "compound": "Cc1c(C(=O)c2c[nH]n(C)c2=O)ccc(S(C)(=O)=O)c1C1=NOCC1",
    "measured on": "Estrogen receptor (Homo sapiens)",
    "cat": "inactive"
  },
  {
    "compound": "COc1cc(O)c(C(=O)c2ccccc2)cc1S(=O)(=O)O",
    "measured on": "Estrogen receptor (Homo sapiens)",
    "cat": "inactive"
  },
  {
    "compound": "CCc1occc(=O)c1O",
    "measured on": "Estrogen receptor (Homo sapiens)",
    "cat": "inactive"
  },
  {
    "compound": "CCC1COC(=O)O1 (stereo unspecified)",
    "measured on": "Estrogen receptor (Homo sapiens)",
    "cat": "inactive"
  }
]

Ask: Could you kindly confirm the outcome this assay logged for `CC(C)(C)N` ?
Reply: inactive

Ask: Could you kindly confirm the outcome this assay logged for `Cc1ccc([N+](=O)[O-])cc1N` ?
Reply: inactive

Ask: Could you kindly confirm the outcome this assay logged for `CCCCCCO` ?
Reply: inactive

---

- assay method text: BSK_4H_SRB: Viability Assessment in the BioMAP Diversity Plus: 4H Assay (AID 2283027);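 further: cells exposed to compound for 24 h before staining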
- condition: primary human endothelial cells (HUVEC)
Activity calls are given as the source filed them. The calls were made as follows: active = hit-call score of the fitted dose curve at least 0.9, where 1 is the maximum; inactive = score below 0.9.
Your reply should match one of these outcome classes. y = active, n = inactive

# count of solved cases: 2
[
  {
    "compound": "CC(C)CCCCCOC(=O)CS",
    "cat": "n"
  },
  {
    "compound": "Clc1cc(Cl)c(Cl)c(Cl)c1Cl",
    "cat": "n"
  }
]

Now turn to the next compound.
Ask: Could you kindly confirm the outcome this assay logged for `O=C(Cl)c1c(Cl)c(Cl)c(C(=O)Cl)c(Cl)c1Cl` ?
Reply: n

---

- assay method text: ATG_M_32_CIS: Attagene CIS-FACTORIAL HepG2 Assay for M32 Transcription Factor (Internal Marker) (AID 2282949);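 further: background control marker of the multiplexed CIS panel rather than a real target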
- condition: HepG2 Attagene cis-factorial M32 reporter, mRNA; actives raise or lower the signal
Activity calls are given as the source filed them. The calls were made as follows: active = hit-call score of the fitted dose curve at least 0.9, where 1 is the maximum; inactive = score below 0.9.
Your reply should match one of these outcome classes. class 1 for active, class 0 for inactive

[
  {
    "compound": "O=C(O)C1CCC(C(=O)O)CC1 (stereo unspecified)",
    "cat": "class 0"
  },
  {
    "compound": "CC(=O)OC/C=C(/C)CCC=C(C)C",
    "cat": "class 0"
  },
  {
    "compound": "O=C(O)CC(C(=O)O)S(=O)(=O)O (stereo unspecified)",
    "cat": "class 0"
  },
  {
    "compound": "CC1=C(O)C(=O)C(C)O1 (stereo unspecified)",
    "cat": "class 0"
  },
  {
    "compound": "CC12CCC(CC1)C(C)(C)O2",
    "cat": "class 0"
  },
  {
    "compound": "CC(=O)c1ccccc1O",
    "cat": "class 0"
  },
  {
    "compound": "N=C1C=CC(=C(c2ccc(N)cc2)c2ccc(N)cc2)C=C1",
    "cat": "class 0"
  },
  {
    "compound": "CC=CC(=O)OCC(C)C",
    "cat": "class 0"
  }
]

Ask: Could you kindly confirm the outcome this assay logged for `CC(C)OC(=O)c1ccccc1` ?
Reply: class 0

Ask: Could you kindly confirm the outcome this assay logged for `COCC(=O)O` ?
Reply: class 0

Ask: Could you kindly confirm the outcome this assay logged for `CCOC(=O)C1=NOC(c2ccccc2)(c2ccccc2)C1` ?
Reply: class 0

Ask: Could you kindly confirm the outcome this assay logged for `CCCCCC1=CCCC1=O` ?
Reply: class 1
